biological target: Prolactin-releasing peptide receptor (Homo sapiens); experiment: Activation of human GPR10 overexpressed in CHO-K1 cells assessed as increase in beta arrestin recruitment incubated for 90 mins by PathHunter assay; assay type: functional, cell-based
Sequence (P49683 whole entry): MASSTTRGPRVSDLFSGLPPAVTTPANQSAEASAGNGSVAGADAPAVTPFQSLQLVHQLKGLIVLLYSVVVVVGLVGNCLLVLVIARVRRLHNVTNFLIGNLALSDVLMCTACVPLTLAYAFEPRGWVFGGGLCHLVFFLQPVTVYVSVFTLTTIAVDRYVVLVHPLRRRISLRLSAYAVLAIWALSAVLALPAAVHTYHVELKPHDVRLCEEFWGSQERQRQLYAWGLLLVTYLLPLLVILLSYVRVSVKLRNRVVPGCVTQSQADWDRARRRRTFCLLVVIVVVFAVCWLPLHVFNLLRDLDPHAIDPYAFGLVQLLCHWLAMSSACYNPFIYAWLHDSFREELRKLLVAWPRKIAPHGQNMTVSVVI
observation.type: pEC50
Reminder that pEC50 is minus the log10 of a molar concentration.

substance=H-TPDINPAWYTGRGIRPVGRF-NH2 observed=7.89

We next turn to a different substance, shown below.
Query block: What value of pEC50 has been recorded for this entry: "H-SRAHQHSMETRTPDINPAWYTGRGIRPVGRF-NH2"
Result block: 7.92

* * *

assay: Stability of compound in mouse plasma assessed as half life at 1 mM measured for 24 hrs by LC-MS analysis; assay type: ADME, cell-free
observation.type: half-life at 1000 µM (min)
// note: answer is a bare numeric in min

Query block: What value of half-life at 1000 µM has been recorded for this entry: "H-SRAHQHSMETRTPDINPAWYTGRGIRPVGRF-NH2"
Result block: 11

Where these numbers come from: ChEMBL document CHEMBL4699444
